subjectOfTest: Dbp2 WT (Schizosaccharomyces pombe, UniProt P24782 1-550)
Sequence (P24782 whole entry): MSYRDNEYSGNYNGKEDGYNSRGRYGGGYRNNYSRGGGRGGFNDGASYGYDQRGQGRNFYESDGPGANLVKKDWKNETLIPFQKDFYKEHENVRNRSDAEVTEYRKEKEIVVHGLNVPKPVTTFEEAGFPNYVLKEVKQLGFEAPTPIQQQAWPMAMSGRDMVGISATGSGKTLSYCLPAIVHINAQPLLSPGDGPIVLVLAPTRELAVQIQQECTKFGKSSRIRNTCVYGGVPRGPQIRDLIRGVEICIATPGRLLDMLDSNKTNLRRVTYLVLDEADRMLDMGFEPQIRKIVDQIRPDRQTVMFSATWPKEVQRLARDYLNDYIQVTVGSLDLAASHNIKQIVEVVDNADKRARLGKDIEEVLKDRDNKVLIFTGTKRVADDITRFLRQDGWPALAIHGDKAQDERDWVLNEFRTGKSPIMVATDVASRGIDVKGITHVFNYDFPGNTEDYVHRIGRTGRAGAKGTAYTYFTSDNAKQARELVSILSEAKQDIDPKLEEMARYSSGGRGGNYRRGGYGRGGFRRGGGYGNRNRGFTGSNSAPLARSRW
methodDescription: EMSA; K+, 2 mM Mg2+; EMSA: 0.4 nM 32P-oligo (0.2 nM in Fig S4), 50 mM Tris (pH not stated), 50 mM KCl (DNA) or NaCl (RNA), 2 mM MgCl2, 2 mM DTT, 0.25 mg/ml BSA, 10 min at 30 C
testSettings: protein: recombinant; tags: C-terminal poly-His; label: 5'-32P; parallel G4, 5' A10 overhang
quantityMeasured: Kd (nM)

[[record]]
binder = "AAAAAAAAAAGGGGAAGGGTGGGGCATGTTATGGG (structured_DNA) [10A-rDNA G4]"
quantitativereadout = 3.84

